- System: Neuregulin-1 EGF-like domain
- protocol_description: binders of neuregulin-1 EGF-like domain, primary screen, biochemical, small-molecule microarray, 635 nm fluorescence (AID 1081);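 further: binding of the protein to compounds printed on small-molecule microarray slides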
- condition_summary: small-molecule microarray binding, higher = more signal
Field: composite z-score. Provide a value for each of the compounds that follow.
Number only, please.

Read the entry COC(=O)C(CC#Cc1ccc2c(c1)[C@]1(C(=O)N2)[C@H](c2ccc(OCCO)cc2)N2[C@H](c3ccccc3)[C@H](c3ccccc3)OC(=O)[C@H]2[C@@H]1C(=O)NC[C@H](O)c1ccccc1)C(=O)OC and write its reported composite z-score.
1.26

Given the compound Cc1ccc(S[C@]2(C(=O)NCCN3CCOCC3)CC(=O)N(Cc3cc(C(F)(F)F)cc(C(F)(F)F)c3)[C@@H]2c2ccc(CO)cc2I)cc1 , write its reported composite z-score.
0.0049

Item COCCOC(=O)N1C(=O)[C@@]2(c3cc(C#CCCO)ccc31)[C@H](c1ccc(O)cc1)N1[C@H](c3ccccc3)[C@H](c3ccccc3)OC(=O)[C@H]1[C@@H]2C(N)=O : provide composite z-score
1.42

// fetch composite z-score given entry COCCCNC(=O)[C@@]1(CCC(=O)OC(C)(C)C)N=C(c2ccc(OCCCO)cc2)O[C@H]1c1ccccc1CN=[N+]=[N-]
1.27

Tell us which composite z-score value is on record for CC(C)(C)N1CC=CC23O[C@@H]4/C=C\CCCOC(=O)C4[C@H]2C(=O)N(CCO)[C@@H]3C1=O (stereo not given in full)
0.938

Supply reported composite z-score belonging to this compound: C=CC[C@@]1(C(=O)O)N=C(c2ccc(OCCCO)cc2)O[C@@H]1c1ccccc1N=[N+]=[N-]
1.07

Report composite z-score, nothing else, for this compound: [N-]=[N+]=NCc1ccccc1C[C@@]1(C(=O)N2CCOCC2)N=C(c2ccc(OCCCO)cc2)O[C@@H]1c1ccccc1CN=[N+]=[N-]
1.37

Name the recorded composite z-score of the item CC(C)C(=C=CC[C@H](O)c1cccc(OCCO)c1)C[C@H](O)COCc1ccccc1 in your answer.
1.13

Provide one value: measured composite z-score of COc1cc2c(cc1O)C(C)N(Cc1cccc(OC(F)(F)F)c1)CC2 (stereo not given)
1.47

Provide one value: measured composite z-score of CCOc1cc(C(O)C2C=CC3C(=O)N(c4ccccc4)C(=O)C3N2Nc2ccc([N+](=O)[O-])cc2)ccc1O (stereo not given)
0.943

Provide only the value of recorded composite z-score for O=C(O)[C@H]1C[C@H]2C(=O)NCC(=O)N2[C@H]1c1ccc(O)cc1
1.4

Please give the documented composite z-score of Cc1cc(C)c(C(O)C2C=CC3C(=O)N(C)C(=O)C3N2Nc2ccccc2)c(C)c1 (stereo not given)
1.27

Answer with reported composite z-score of C[N+](C)(C)CCCCCCNC(=O)[C@H]1C[C@H]2C(=O)N3CCC[C@H]3C(=O)N2[C@H]1c1ccc(O)cc1
1.37

Return reported composite z-score. Input compound: COCCOC(=O)N1C(=O)[C@@]2(c3cc(C#CCNC(N)=O)ccc31)[C@H](c1ccc(O)cc1)N1[C@H](c3ccccc3)[C@H](c3ccccc3)OC(=O)[C@H]1[C@@H]2C(=O)NC[C@H](O)c1ccccc1
0.866

Write down composite z-score measured for item [N-]=[N+]=NCc1ccccc1C[C@@]1(C(=O)NCC(O)CO)N=C(c2ccc(OCCCO)cc2)O[C@@H]1c1ccccc1CN=[N+]=[N-] (stereo not given in full)
1.21
